Cited source for all entries: the METLIN SMRT retention time set (Domingo-Almenara et al. 2019)

assay: gradient 5% acetonitrile 3 min, to 50% in 2 min, to 85% in 15 min, held 3 min, 100 µL/min; details: column: Zorbax Extend-C18 2.1 x 50 mm; eluents: water / acetonitrile, 0.1% formic acid
testReadout: RP-LC retention time (s)
Respond numerically; units are s and should not be typed.

// CC(C)NC(=O)Cn1c(-c2ccccc2F)nc2ccccc21 : RP-LC retention time value = 589

// CCCNC(=O)CCc1nc2ccccc2n(CC(=O)Nc2cc(Cl)c(OC)cc2OC)c1=O : RP-LC retention time value = 790

// O=C(NCc1ccccc1C(F)(F)F)c1cn2nc(Cl)ccc2n1 : RP-LC retention time value = 922

// O=C(c1ccco1)N1CCN=C1N1CCN(c2cccc(Cl)c2)CC1 : RP-LC retention time value = 696

// COc1ccc(OCC(=O)N2CCC(C(=O)NCc3csc(-c4cccs4)n3)CC2)cc1 : RP-LC retention time value = 771

* * *

test: gradient 5% acetonitrile 3 min, to 50% in 2 min, to 85% in 15 min, held 3 min, 100 µL/min; settings: column: Zorbax Extend-C18 2.1 x 50 mm; eluents: water / acetonitrile, 0.1% formic acid
Please provide measured RP-LC retention time for the entries that follow.
Param answer (str): number followed by unit.

// Cc1nn(C)cc1S(=O)(=O)Nc1c(C)n(C)n(-c2ccccc2)c1=O : RP-LC retention time value = 722 s

// Cn1c(N2CCCC(C(=O)NCc3ccc(F)cc3)C2)cc(=O)n(C)c1=O (stereo unspecified) : RP-LC retention time value = 680 s

// COc1ccc(OC)c(NC(=O)Cn2c(C)cc(-c3nnc(C)o3)c2C)c1 : RP-LC retention time value = 776 s

// COc1ccc(-c2csc(NC(=O)c3ccc4c(c3)OCCO4)n2)cc1OC : RP-LC retention time value = 963 s

// COCc1nc(C2CCN(C(=O)C3(c4ccccc4)CC3)C2)no1 (stereo unspecified) : RP-LC retention time value = 750 s

// CCOc1ccc(/C=C2\NC(=S)NC2=O)cc1 : RP-LC retention time value = 840 s

* * *

assay: gradient 5% acetonitrile 3 min, to 50% in 2 min, to 85% in 15 min, held 3 min, 100 µL/min; settings: column: Zorbax Extend-C18 2.1 x 50 mm; eluents: water / acetonitrile, 0.1% formic acid
testReadout: RP-LC retention time

// CCNC(=O)NCCC1CCN(S(=O)(=O)c2ccc(F)cc2)CC1 : RP-LC retention time value = 728 s

// O=C(NC1CCN(c2cc(-c3ccc(Cl)cc3)[nH]n2)C1)c1ccccn1 (centres undefined) : RP-LC retention time value = 751 s

// COCc1nnc(-c2cc(C)cc(C)c2)o1 : RP-LC retention time value = 857 s

// CCN1c2ccc(F)cc2C(=O)NC12CCN(C(=O)c1cc(OC)cc(OC)c1)CC2 : RP-LC retention time value = 782 s

* * *

experiment: gradient 5% acetonitrile 3 min, to 50% in 2 min, to 85% in 15 min, held 3 min, 100 µL/min; details: column: Zorbax Extend-C18 2.1 x 50 mm; eluents: water / acetonitrile, 0.1% formic acid
Please provide measured RP-LC retention time for the entries that follow.
Respond numerically; units are s and should not be typed.

// COc1ccc(-c2nnc(NC(=O)c3ccc(S(=O)(=O)N(C)C)cc3)s2)c(OC)c1 : RP-LC retention time value = 808

// CCCN1CCN(CCNC(=O)CCc2cc3ccc(C)cc3[nH]c2=O)CC1 : RP-LC retention time value = 571

// Cc1cnnn1-c1ccc(C(=O)Nc2nccs2)cc1 : RP-LC retention time value = 623

// C#CCSc1nc2sc(C)c(C)c2c(=O)n1C : RP-LC retention time value = 983

// Cc1cccc(NS(=O)(=O)c2cn(C(C)C)c3ncccc23)c1 : RP-LC retention time value = 892

// O=C(NCc1csc(-c2cccs2)n1)C1CCN(C(=O)CCc2ccccc2)CC1 : RP-LC retention time value = 805

// N#Cc1ccc(CN2CC(n3cc(COc4ccc(F)cc4)nn3)C2)cc1 : RP-LC retention time value = 678

// COc1cc(NC(C)=O)c(Cl)cc1C(=O)NCCc1c[nH]c2ccc(C)cc12 : RP-LC retention time value = 831

// N#Cc1ccc(NS(=O)(=O)c2cccc(-c3nc(-c4ccccc4)no3)c2)cc1 : RP-LC retention time value = 1090

// CCc1nc(OCC(=O)NCc2ccc(SC)cc2)c2ccccc2n1 : RP-LC retention time value = 814

// CCOc1cccc(CN2Cc3ccccc3OC3(CCN(CCOC)CC3)C2)c1 : RP-LC retention time value = 619
